Target: Ghrelin receptor (Homo sapiens, UniProt Q92847)
Sequence (Q92847 whole entry): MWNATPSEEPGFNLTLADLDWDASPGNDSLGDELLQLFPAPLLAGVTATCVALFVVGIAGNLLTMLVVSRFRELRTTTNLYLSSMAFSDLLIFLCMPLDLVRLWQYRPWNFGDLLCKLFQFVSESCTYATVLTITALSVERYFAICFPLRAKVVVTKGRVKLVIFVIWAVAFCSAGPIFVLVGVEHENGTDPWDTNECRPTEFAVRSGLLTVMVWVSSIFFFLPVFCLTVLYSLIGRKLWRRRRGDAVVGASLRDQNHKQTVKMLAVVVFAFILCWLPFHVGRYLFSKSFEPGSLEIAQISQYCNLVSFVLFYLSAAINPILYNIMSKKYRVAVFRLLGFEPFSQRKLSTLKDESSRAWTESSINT
Experiment: Receptor Selection and Amplification Technology (R-SAT) assay
Type: cell-based
Set-up: expressed in transfected cells; host or cells: NIH3T3
Settings: percent inhibition at saturating ligand, normalized to reference ligand Substance P analog = 100%; read-out: RSAT Eff(%)
observed property: Emax (%)
Kindly answer with a numeric value in %, unit omitted.

The following molecules have reported results that may help.
| entry smiles | unit of measure | reading |
| --- | --- | --- |
| CC(=O)c1cn(CCCN2CCCN(Cc3ccc(F)cc3)CC2)c2ncccc12 | % | 136 |
| CCC(=O)c1cn(CCCN2CCC(Oc3ccc(F)cc3)CC2)c2ccccc12 | % | 90 |
| COc1ccc2c(C(C)=O)cn(CCCN3CCC(Oc4ccc(Cl)cc4)CC3)c2c1 | % | 67 |
| COc1ccccc1C1CCN(CCCn2cc(C(C)=O)c3cccc(C)c32)CC1 | % | 116 |

Would you kindly share the measured Emax for "CC(=O)c1c(C)n(CCCN2CCN(CCOc3ccccc3)CC2)c2c(Br)cccc12" ?
57

Data origin: patent US20070213359A1
